Assay Details: chemical genetic growth profiling, strain panel (AID 1159580);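 also: tested at 20 µM; growth read once vehicle control cultures reached saturation at 30 °C; 1 = growth at the plate median or of vehicle wells; lower values mean less growth of the strain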
Setup Conditions: S. cerevisiae deletion strains, growth OD, locus YPL051W, strain arl3, hits give low values
Out of some 5,500 compounds screened, about 2,000 (36%) were called active. About 18% were inconclusive and are not listed. The list shows a part of the results.
# normalized growth listing for each entry below

The reported normalized growth of the compound CCCC(C(=O)OCCN(CC)CC)(c1ccccc1)c1ccccc1 was 0.972 (inactive)

Documented normalized growth of CC(CCC(=O)O)[C@H]1CCC2C3CC[C@@H]4C[C@H](O)CC[C@]4(C)C3CC[C@@]21C (stereo partly drawn) : 0.793 (active)

Value of measured normalized growth for the entry COC(=O)CCC(C)C1CCC2C3CC[C@@H]4C[C@H](O)CC[C@]4(C)C3C[C@H](O)[C@]12C (stereo partly drawn) : 0.913 (active)

Looking up C[C@H](CCC(=O)O)[C@H]1CCC2C3C(CC[C@@]21C)[C@@]1(C)CC[C@@H](O)C[C@H]1C[C@@H]3O (stereo partly drawn) , I see its normalized growth listed as 1 (inactive)

Data point: CC(=O)Nc1ccccc1 ; normalized growth = 0.982 (inactive)

Per the records, this compound ( CC(C)CCCC(C)C1CCC2C3CC[C@H]4CCCC[C@]4(C)C3CC[C@]12C (stereo partly drawn) ) has normalized growth equal to 0.997 (inactive)

# normalized growth of CC(CCC(=O)O)[C@H]1CCC2C3C(C[C@H](O)[C@@]21C)[C@@]1(C)CC[C@@H](O)C[C@H]1C[C@H]3O (stereo partly drawn) = 1.01 (inactive)

normalized growth reported for this compound CN[C@@H]1[C@H](OC2[C@H](O[C@H]3[C@H](O)[C@@H](O)[C@H](N=C(N)N)[C@@H](O)[C@@H]3N=C(N)N)O[C@@H](C)[C@]2(O)C=O)O[C@@H](CO)[C@H](O)[C@H]1O (stereo partly drawn) : 1.01 (inactive)

----------
Assay Details: chemical genetic growth profiling, strain panel (AID 1159580)
Setup Conditions: S. cerevisiae deletion strains, growth OD, locus YDL005C, strain med2
Among all 5,500 compounds or so, about 2,000 (36%) were called active. About 18% were inconclusive and are not listed. No stated cut-off is given here; in the data, active means normalized growth mostly below about 0.91 (no sharp cut-off); inconclusive means no clear call, values can overlap the other calls; inactive means mostly above about 0.92. Some of the results follow.
The categories you may choose from are active, inactive

Example results:
N[C@H](Cc1ccccc1)C(=O)O = inactive
C[C@H](N)[C@H](O)c1cccc(O)c1 = inactive
COc1cc(S(C)=O)ccc1-c1nc2ncccc2[nH]1 (stereo not drawn) = inactive

So what was the verdict on O=C(O)c1ccccc1C(=O)Nc1ccc(S(=O)(=O)Nc2nccs2)cc1 in this test?
inactive

Look up the recorded call for CC(CN(C)C)CN1c2ccccc2CCc2ccccc21 (stereo not drawn) in this test.
inactive

----------
Assay Details: chemical genetic growth profiling, strain panel (AID 1159580)
Setup Conditions: S. cerevisiae deletion strains, growth OD, locus YER155C, strain BEM2 (second series)
In all, about 5,500 compounds went through this assay and about 2,000 (36%) were called active. Not shown: some 18% with an inconclusive outcome. Cut-off read from the data, not from the text of the source: active = normalized growth mostly below about 0.91 (no sharp cut-off); inconclusive = no clear call, values can overlap the other calls; inactive = mostly above about 0.92. This is one part of the list.
A correct response names exactly one class from active, inactive

N#C/C(=C\c1cccc(O)c1)C(=O)O = inactive

Shift focus to the following entry.
# outcome recorded in this test, key = CN(C)CCC(c1ccc(Br)cc1)c1ccccn1 (stereo not drawn)
inactive

----------
Assay Details: chemical genetic growth profiling, strain panel (AID 1159580)
Setup Conditions: S. cerevisiae deletion strains, growth OD, locus YBR023C, strain chs3, hits give low values
The campaign covered roughly 5,500 compounds. About 2,000 (36%) were called active. Roughly 18% stayed inconclusive and do not appear here. The list shows a part of the results.
Listed here are molecules together with their documented normalized growth.
Keep it simple and answer with nothing but the number.

// worked examples, normalized growth included
CCCCS(=N)(=O)CCC(N)C(=O)O (stereo unspecified) = 0.997
O=c1cc(-c2ccc(O)cc2)oc2cc(O)ccc12 = 0.958
C[C@@H]1CC2C3CCC4=CC(=O)C=C[C@]4(C)[C@@]3(F)[C@@H](O)C[C@]2(C)[C@H]1C(=O)CO (stereo partly specified) = 0.995

Lookup result for O=c1cc(-c2ccccc2)oc2cc(O)c(O)cc12 ; measured normalized growth: 0.973

Note to self: normalized growth recorded for C[C@@H](N)[C@@H](O)c1ccccc1 was 0.997

# molecule CCCC(CCC)C(=O)O ; its normalized growth = 1.01

molecule CC(=O)O[C@H]1C[C@@H](OC(C)=O)C(C)(C)C2CC(=O)[C@]3(C)C(CC[C@@]4(C)[C@H](c5ccoc5)OC(=O)[C@H]5O[C@]543)[C@]21C (stereo partly specified) , normalized growth observed: 1.01

Value of measured normalized growth for the entry C[C@@H]1CC2C3C[C@H](F)C4=CC(=O)C=C[C@]4(C)[C@@]3(F)[C@@H](O)C[C@]2(C)[C@@]1(O)C(=O)COC(=O)C(C)(C)C (stereo partly specified) : 0.983

Consider CCCCC[C@H](CC(=O)NO)C(=O)N[C@H](C(=O)N1CCC[C@H]1CO)C(C)C . Its measured normalized growth is 1.01

Entry under test: NCC(CC(=O)O)c1ccc(Cl)cc1 (stereo unspecified) . Its normalized growth was 0.997

Please fill in: normalized growth reported for CC1CCC2(OC1)OC1CC3C4CCC5C[C@@H](O)CCC5(C)C4=CCC3(C)C1[C@@H]2C (stereo partly specified) = 1.01

Note to self: normalized growth recorded for Cc1cc(=O)oc2c(O)c(O)ccc12 was 0.975

Reported normalized growth ( NC(=O)c1ncn(C2O[C@H](CO)[C@@H](O)[C@H]2O)c1N (stereo partly specified) ) = 1.02

For COc1cc(OC)c(OC)cc1C=O the molecule record lists normalized growth as 0.991

Entry O=c1cc(-c2ccc(O)cc2)oc2cc(O)cc(O)c12 , normalized growth reported as 0.993

Reported normalized growth of CN(C)CCOC(=O)C(c1ccccc1)C1(O)CCCC1 (stereo unspecified) : 1

----------
Readings of normalized growth for the listed compounds
Assay Details: chemical genetic growth profiling, strain panel (AID 1159580);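 also: tested at 20 µM; growth read once vehicle control cultures reached saturation at 30 °C; 1 = growth at the plate median or of vehicle wells; lower values mean less growth of the strain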
Setup Conditions: S. cerevisiae deletion strains, growth OD, locus YLR262C, strain YPT6, hits give low values
Screen size: about 5,500 compounds; about 2,000 (36%) were called active. Roughly 18% stayed inconclusive and do not appear here. The list shows a part of the results.

What the record says about CC(=O)Nc1ccc(S(=O)(=O)Nc2ncccn2)cc1 : normalized growth is 1.13 (inactive)

Value of normalized growth reported for the compound COc1ccc(CNc2ccccc2-c2nc3ccccc3[nH]2)cc1 is 0.648 (active)

Note to self: normalized growth recorded for COc1c(Cl)ccc(Cl)c1C(=O)O was 1.07 (inactive)

For reference, reported normalized growth for CN(C)CCC(c1ccc(Br)cc1)c1ccccn1 (centres undefined) stands at 1.03 (inactive)

normalized growth reported for this compound CC1CC2C3CC(F)C4=CC(=O)C=CC4(C)C3(F)C(O)CC2(C)C1C(=O)COC(=O)C(C)(C)C (centres undefined) : 0.872 (inactive)

Value of normalized growth reported for the compound CO[C@]12C[C@@H](COC(=O)c3cncc(Br)c3)CN(C)[C@@H]1Cc1cn(C)c3cccc2c13 is 1.45 [resistant] (active)

Memo: Cc1ccc(OCc2nnc(SCC(=O)Nc3cccc4c3OCO4)n2-c2ccccc2)c2c1CCC2 , reported normalized growth: 0.985 (inactive)

Lookup result for CN[C@@H]1[C@H](OC2[C@H](O[C@H]3[C@H](O)[C@@H](O)[C@H](N=C(N)N)[C@@H](O)[C@@H]3N=C(N)N)O[C@@H](C)[C@]2(O)C=O)O[C@@H](CO)[C@H](O)[C@H]1O (some centres undefined) ; measured normalized growth: 1.01 (inactive)

Looking up O=C(O)c1ccccc1C(=O)Nc1ccc(S(=O)(=O)Nc2nccs2)cc1 , I found its normalized growth recorded as 1.03 (inactive)

----------
Catalogue of normalized growth values
Assay Details: chemical genetic growth profiling, strain panel (AID 1159580);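 also: tested at 20 µM; growth read once vehicle control cultures reached saturation at 30 °C; 1 = growth at the plate median or of vehicle wells; lower values mean less growth of the strain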
Setup Conditions: S. cerevisiae deletion strains, growth OD, locus YDL101C, strain DUN1, hits give low values
The whole screen tested about 5,500 compounds, of which about 2,000 (36%) were called active. Roughly 18% stayed inconclusive and do not appear here. The list shows a part of the results.
Please give only the number in your answer, with no unit.

Known results for compounds:
O=C(CCn1c(=O)oc2ccccc21)Sc1ccc(Cl)cc1Cl = 0.971
N#C/C(=C\c1cccc(O)c1)C(=O)O = 0.974

Consider now this further compound.
Input CS(=O)(=O)/C(C#N)=C/c1ccccc1OCc1c(Cl)cccc1Cl . Output normalized growth: 0.958

----------
Assay Details: chemical genetic growth profiling, strain panel (AID 1159580);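 also: tested at 20 µM; growth read once vehicle control cultures reached saturation at 30 °C; 1 = growth at the plate median or of vehicle wells; lower values mean less growth of the strain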
Setup Conditions: S. cerevisiae deletion strains, growth OD, locus YDR054C, strain cdc34, hits give low values
Among all 5,500 compounds or so, about 2,000 (36%) were called active. Roughly 18% stayed inconclusive and do not appear here. Some of the results follow.
Assay Metric: normalized growth
Would you mind answering with just the numeric figure?

Examples from the recorded data:
O=C(Nc1ccc(Cl)cc1)O/N=C\c1ccn(-c2ccccc2)n1 = 0.952
CS(=O)(=O)c1sc(C(=O)Sc2ccc(Cl)cc2)c2c1C=CCC2 = 0.771
COc1ccc(OC)c(-c2ccn[nH]2)c1OCc1ccccc1 = 0.985
CS(=O)(=O)/C(C#N)=C/c1ccccc1OCc1c(Cl)cccc1Cl = 0.975

normalized growth recorded for this compound, Oc1ccc(N=Nc2ccccn2)c(O)c1 , is 0.0989

The recorded normalized growth for O=C(CCn1c(=O)oc2ccccc21)Sc1ccc(Cl)cc1Cl is 0.748

The compound identified as COc1cc(CC/C(C)=N\O)ccc1OCc1ccc(Cl)c(Cl)c1 registered its normalized growth at 0.968

Record CC1C/C(=N/Nc2ccc(Br)cc2)c2cc(Cl)ccc2S1 (configuration not stated) , field normalized growth: 0.333

normalized growth reading for CC1C/C(=N/Nc2ccc(Br)cc2)c2cc(Cl)ccc2S1(=O)=O (configuration not stated) : 1

Short answer for O=C(CCn1c(=O)oc2ccccc21)Sc1ccc(C(F)(F)F)cc1 : normalized growth was 0.936

Item: O=C1CSC(c2ccc(C(F)(F)F)cc2)N1c1ccc(C(F)(F)F)cc1 (configuration not stated) | normalized growth: 1

# compound CC1(C)c2ccccc2N(CCC(N)=O)C12C=Cc1c(ccc3ccccc13)O2 (configuration not stated) ; its normalized growth = 0.956

Measured values drawn from PubChem BioAssay AID1159580 for this set.
